Form field: pIC50 (one value per entry).
biological target: DNA excision repair protein ERCC-1/DNA repair endonuclease XPF (Homo sapiens, UniProt P07992+Q92889); test: Inhibition of ERCC1-XPF (unknown origin) by high-throughput fluorescence based in-vitro endonuclease assay
Sequence (P07992 whole entry): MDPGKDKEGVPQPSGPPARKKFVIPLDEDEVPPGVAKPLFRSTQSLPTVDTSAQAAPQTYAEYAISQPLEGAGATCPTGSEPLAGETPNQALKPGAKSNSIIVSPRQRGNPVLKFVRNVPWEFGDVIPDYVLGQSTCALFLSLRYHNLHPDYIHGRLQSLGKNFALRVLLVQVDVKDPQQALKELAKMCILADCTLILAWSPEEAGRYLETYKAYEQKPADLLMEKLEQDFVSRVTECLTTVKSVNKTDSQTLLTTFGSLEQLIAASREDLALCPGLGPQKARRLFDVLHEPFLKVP
Sequence (Q92889 whole entry): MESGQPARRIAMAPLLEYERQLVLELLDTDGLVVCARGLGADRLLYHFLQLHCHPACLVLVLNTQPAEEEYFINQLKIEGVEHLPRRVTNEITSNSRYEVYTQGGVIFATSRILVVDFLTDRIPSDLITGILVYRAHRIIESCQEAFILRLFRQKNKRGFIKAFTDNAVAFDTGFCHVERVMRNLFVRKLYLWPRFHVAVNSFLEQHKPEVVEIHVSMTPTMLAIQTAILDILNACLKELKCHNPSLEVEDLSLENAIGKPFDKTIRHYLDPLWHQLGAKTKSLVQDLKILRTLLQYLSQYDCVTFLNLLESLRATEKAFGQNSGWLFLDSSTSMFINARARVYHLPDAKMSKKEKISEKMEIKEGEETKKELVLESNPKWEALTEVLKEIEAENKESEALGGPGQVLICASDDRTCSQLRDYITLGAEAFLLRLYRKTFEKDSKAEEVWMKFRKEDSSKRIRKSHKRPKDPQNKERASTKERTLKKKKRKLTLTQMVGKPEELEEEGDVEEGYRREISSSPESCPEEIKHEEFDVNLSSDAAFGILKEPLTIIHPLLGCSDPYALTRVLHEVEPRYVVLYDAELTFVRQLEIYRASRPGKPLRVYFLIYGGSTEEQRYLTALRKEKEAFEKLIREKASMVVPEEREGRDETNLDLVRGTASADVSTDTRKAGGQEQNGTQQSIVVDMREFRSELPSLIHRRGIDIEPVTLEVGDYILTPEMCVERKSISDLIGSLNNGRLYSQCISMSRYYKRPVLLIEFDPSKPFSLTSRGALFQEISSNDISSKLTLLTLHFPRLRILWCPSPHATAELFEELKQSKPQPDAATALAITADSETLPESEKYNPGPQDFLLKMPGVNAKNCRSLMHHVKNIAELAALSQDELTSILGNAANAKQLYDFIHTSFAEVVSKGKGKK
Just the number, please; pIC50 means minus log10 of the concentration in mol/L.

Some solved entries appear below for comparison.
Fill in: pIC50 of O=c1[nH]c2sccc2c(=O)n1O is ___
5.41

Repeat for the following compound: O=c1cc(-c2ccccc2)[nH]c(=O)n1O
5.82

Repeat for the following compound: CC(C)CCNC(=O)c1nc(-c2ccc(CN(C)C)cc2)[nH]c(=O)c1O
5.77

Repeat for the following compound: CNC(=O)c1nc(-c2cccs2)[nH]c(=O)c1O
6.22

Repeat for the following compound: CC(C)CCNC(=O)c1nc(C2CCCCN2C)[nH]c(=O)c1O (stereo unspecified)
5.08

***
Fill in: pIC50 of CC(=O)Nc1ccc2[nH]c(=O)n(O)c(=O)c2c1 is ___
5.18

Each recorded value in this set is attributed to ChEMBL document CHEMBL3616448.
